Assay: cell viability in Huh7 cells, primary screen, cytotoxicity control for HCV replication inhibitor project, CellTiter-Glo luminescence, basal, 48 h (AID 1143);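 also: Huh7 hepatoma cells carrying a hepatitis C replication reporter with no stimulus; test concentration not given here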
Settings: Huh7 HCV replicon, higher = more signal, called active from +8 up or from −8 down
Short version: z-score at least 0.04 is met, less is not met.

Query :: Check the entry CO[C@H]1COC(=O)CC=C[C@H](C)[C@@H](NS(=O)(=O)c2ccc(C)cc2)COC(=O)CC=C[C@@H]1C : does z-score equal or exceed 0.04?
Result :: not met

Query :: Also, CC(C)(C)OC(=O)CC[C@]1(C(N)=O)COC(c2ccc(OCCCO)cc2)=N1 please.
Result :: met

Query :: Also, Cc1cc(C)c(-c2cc([C@H](C)ON=C3[C@H]4CCn5c(=O)n(-c6ccccc6)c(=O)n5[C@H]4[C@H](O)[C@@H]4O[C@H]34)on2)c(C)c1 please.
Result :: not met

Query :: Also, CCCCCN1CC=CC23O[C@@H]4C=CCOC(=O)[C@@H]4[C@H]2C(=O)N(CCCCCCO)[C@@H]3C1=O (stereo partly specified) please.
Result :: met

Query :: Also, COc1ccccc1CN1C(=O)c2ccccc2[C@@]2(Cc3ccccc3N(C(C)C)C2=O)[C@@H]1c1ccc(CO)cc1 please.
Result :: not met

Query :: Also, O=C1[C@H]2[C@H]3[C@H](O)[C@H](O)CC(=NOCc4ccccc4)[C@H]3CC[C@H]2C(=O)N1c1ccc(F)cc1F please.
Result :: not met

Query :: Also, CCOC(=O)CCN1C(=O)[C@H]2[C@H]3[C@H](O)C=CC(=O)[C@@H]3CC[C@H]2C1=O please.
Result :: met

Query :: Also, COCCOC(=O)N1C(=O)[C@@]2(c3ccccc31)[C@H](C(N)=O)[C@H]1C(=O)O[C@H](c3ccccc3)[C@H](c3ccccc3)N1[C@@H]2c1ccccc1OCCO please.
Result :: not met

Query :: Also, COC(=O)CC=C[C@@H](C)[C@@H](C=NO[C@H](C)c1cn([C@@H]2COC[C@H]2O)nn1)OC please.
Result :: met

Query :: Also, O=C1CCCC=C1C(O)CCOCc1ccccc1 (stereo unspecified) please.
Result :: met

Query :: Also, CC(C)[C@H](NC(=O)OC(C)(C)C)[C@@H](O)CC(=O)OC(C)(C)C please.
Result :: not met

Query :: Also, COC(=O)C1(C)C=C2C(=C(c3ccccc3)C(=O)C2C)CN1 (stereo unspecified) please.
Result :: not met

Query :: Also, CO[C@@H]1COC(=O)CC=C[C@@H](C)COC(=O)[C@H](COCc2ccccc2)NC(=O)CC=C[C@H]1C please.
Result :: met

Query :: Also, COc1ccc([Si](C)(C)[C@H]2[C@H](CCO)O[C@@]3(C(=O)N(Cc4cccc(NC(=O)[C@H](C)O)c4)c4ccccc43)[C@@H]2C)cc1 please.
Result :: not met

Query :: Also, CCOC(=O)NN=C1C[C@@H](O)[C@@H](O)[C@@H]2[C@@H]3C(=O)N(CC)C(=O)[C@@H]3CC[C@@H]12 please.
Result :: met

Query :: Also, C=CC[C@@H]1C=C[C@H](ON=C[C@@H](OC)[C@H](C)C=CCC(=O)OC)[C@@H](CO)O1 please.
Result :: met

Query :: Also, C=CCOC(=O)[C@H]1[C@@H]2C(=O)O[C@@H](c3ccccc3)[C@@H](c3ccccc3)N2[C@@H](c2ccc(OCCOC(=O)[C@H]3C[C@H]4C(=O)N[C@@H](Cc5ccccc5)C(=O)N4[C@H]3c3ccc(O)cc3)cc2)[C@]12C(=O)Nc1ccccc12 please.
Result :: not met

* * *

Assay: E. coli acrAB mutant growth effects, primary screen, E. coli filamentation inducers, strain DRC39, OD650, 24 h (AID 1178);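 also: growth measured as culture turbidity by optical density at 650 nm; test concentration not given here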
Conditions: higher = more signal, called active from +8 up or from −8 down
measured-quantity: z-score
The response must contain the number and no unit.

// solved cases for z-score follow
| compound | measured-quantity | quantitative-readout |
| --- | --- | --- |
| CN(C)CCCNC(=O)[C@@H]1c2ccccc2C(=O)N(Cc2ccccc2)[C@H]1c1ccc(CO)cc1 | z-score | -0.0194 |
| c1ccc(C2NCCc3c2[nH]c2ccccc32)cc1 (centres undefined) | z-score | -0.832 |
| CC(=O)OC[C@H]1O[C@@H](ON=C(C)CCN2CCc3nc(-c4ccccc4)c(-c4ccccc4)cc3C2)[C@H](OC(C)=O)[C@@H](OC(C)=O)[C@@H]1OC(C)=O | z-score | -1.11 |

Then this compound:
Query :: Any idea what its z-score is? The compound is CS(=O)(=O)CCOC(=O)C1=CC(CCCO)=CC(c2cccs2)N(Cc2cccc(OC(F)(F)F)c2)C=C1C(=O)OCCS(C)(=O)=O (centres undefined)
Result :: 0.596

* * *

Below: a set of entries, each annotated with reported composite z-score.
Tested on: Noggin (protein binding on small-molecule microarray)
Experiment: Noggin binders on small-molecule microarray, primary screen, biochemical, 635/667 nm fluorescence (AID 1095);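 also: score merges 667 nm feature fluorescence with signal to noise over triplicate slides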
Conditions: 635 nm fluorescence, higher = more signal

| molecule | composite z-score |
| --- | --- |
| CC(C)c1ccc(NN2C(C(O)c3ccc4c(c3)OCO4)C=CC3C(=O)N(c4ccccc4)C(=O)C32)cc1 (stereo not given) | 1.01 |
| CCOC(=O)NN=C1C[C@@H](O)[C@@H](O)[C@@H]2[C@@H]3C(=O)N(C(C)(C)C)C(=O)[C@@H]3CC[C@@H]12 | 0.261 |
| CC(=O)OC[C@H]1O[C@H](CCON=C(C)CCN2CCc3nc(-c4ccccc4)c(-c4ccccc4)cc3C2)C=C[C@@H]1OC(C)=O | 0.169 |
| CO[C@H]1COC(=O)[C@@H]2CCCN2C(=O)CC=C[C@@H](C)[C@H](OC)COC(=O)CC=C[C@@H]1C | 1.48 |
| CC(=O)C[C@H](O)[C@@H](NC(=O)OC(C)(C)C)C(C)C | -0.198 |

Query :: Lab note: need composite z-score with Noggin (protein binding on small-molecule microarray) for entry CC(C)(C)OC(=O)CC[C@]1(C(=O)NCc2ccccc2)N=C(c2ccc(OCCCO)cc2)O[C@H]1c1ccccc1 , please look it up.
Result :: 0.798

Query :: Also, CC(CCN1CCc2nc(-c3ccccc3)c(-c3ccccc3)cc2C1)=NOC[C@@H](C)[C@H](OCc1ccccc1)C(C)C please.
Result :: -0.179

* * *

Biological target: Luciferin 4-monooxygenase (Photinus pyralis)
Assay: firefly luciferase enzyme inhibitors, primary screen, biochemical, luminescence, purified enzyme, 2006 set (AID 1141);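 also: cell-free assay with purified firefly luciferase at 100 ng per well in PBS; test concentration not given here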
Settings: SteadyGlo luminescence, 30 min, higher = more signal, called active from +8 up or from −8 down
measured-quantity: z-score
The response must contain the number and no unit.

// solved cases for z-score follow
| compound | z-score |
| --- | --- |
| COc1ccc(-c2ccc3c(n2)CCCN3CC(O)CN2CCCc3nc(C)c(C)cc32)cc1 (configuration not stated) | -1.2 |
| COc1ccc([Si](C)(C)[C@@H]2[C@@H](CC(=O)N3CCC[C@H]3CO)O[C@]3(C(=O)N(Cc4cccc(N5CCC5=O)c4)c4ccccc43)[C@H]2C)cc1 | -1.69 |
| COc1ccccc1CN1C(=O)c2ccccc2[C@@H](C(=O)NCC(F)(F)F)[C@@H]1c1ccc(CO)cc1 | 0.806 |
| CCOC(=O)[C@H](Cc1ccccc1)NC(=O)CCC1CC(OC(=O)NCc2ccc3c(c2)OCO3)CC2(CCCC(COC(=O)NCC3CCCCC3)O2)O1 (some centres not stated) | 0.986 |
| COc1ccc(O[C@H]2C=C[C@@H](c3ccccc3)O[C@@H]2COC(=O)CCC(C)=NO[C@H](C)c2cn([C@@H]3COC[C@H]3O)nn2)cc1 | 0.884 |

Query :: Any idea what its z-score is? The compound is N#Cc1ccc(NN2C(C(O)c3cccc4ccccc34)C=CC3C(=O)N(c4ccccc4)C(=O)C32)cc1 (configuration not stated)
Result :: 0.512

Query :: Also, C[C@@H]1CCC2C(=O)N(Cc3ccccc3)C[C@@H](O)CN2[C@H]1c1ccc(Br)cc1 (some centres not stated) please.
Result :: -1.86

* * *

Test system: glycogen synthase kinase-3 (GSK3A per assay name; protocol says GSK3B)
Test: GSK3 binders on small-molecule microarrays, primary screen, biochemical, small-molecule microarray, 635 nm fluorescence, GSK3A (AID 1103); also: the record names both GSK3A and GSK3B
Conditions: small-molecule microarray binding, fluorescence 635 nm; higher = more signal
Below: a set of entries, each annotated with reported composite z-score.
The response must contain the number and no unit.

// solved cases for composite z-score follow
| compound | composite z-score |
| --- | --- |
| COC(=O)CC=C[C@H](C)[C@@H](OCc1ccccc1Br)C(C)C | -0.243 |
| COCCCNC(=O)[C@@]1(CCS(=O)(=O)c2ccccc2)N=C(c2ccc(OCCCO)cc2)O[C@H]1c1ccccc1 | 1.29 |
| COC(=O)C1=C(C)[C@@H](O)[C@@H](C)[C@H](c2c(OC)c(OC)c(C)c(OC)c2OC)O1 | -0.419 |
| [N-]=[N+]=NCc1ccccc1[C@@H]1OC(c2ccc(OCCCO)cc2)=N[C@]1(Cc1ccccc1)C(=O)N1CCOCC1 | 1.29 |

Query :: Any idea what its composite z-score is? The compound is CC(=O)OC[C@H]1O[C@@H](ON=C(C)CCN2CCc3nc(-c4ccccc4)c(-c4ccccc4)cc3C2)[C@H](OC(C)=O)[C@@H](OC(C)=O)[C@@H]1OC(C)=O
Result :: 1.22

Query :: Also, CC(C)[C@@H](OCc1ccccc1)[C@H](C)C=NOC[C@@H](C)[C@H](OCc1ccccc1)C(C)C please.
Result :: -0.076

Query :: Also, CC1(C)OCC(C(O)C2=CCCCC2=O)CO1 (stereo not drawn) please.
Result :: 0.999

Query :: Also, C=CC[C@@H]1C=C[C@H](ON=Cc2ccc(C(=O)N3[C@H](c4ccc(C)cc4)[C@@H](C)CC[C@H]3C(=O)OC)cc2)[C@@H](CO)O1 please.
Result :: 0.363
